molecular target: Oatp1b2 (Mus musculus, UniProt Q9JJL3); assay: Untargeted metabolomics of plasma from untreated wild-type and Oatp1b2(−/−) mice; details: plasma of untreated Oatp1b2-deficient (KO) vs wild-type (WT) mice; semi-quantitative; positive = higher in KO; n = 6 per group
Sequence (Q9JJL3 whole entry): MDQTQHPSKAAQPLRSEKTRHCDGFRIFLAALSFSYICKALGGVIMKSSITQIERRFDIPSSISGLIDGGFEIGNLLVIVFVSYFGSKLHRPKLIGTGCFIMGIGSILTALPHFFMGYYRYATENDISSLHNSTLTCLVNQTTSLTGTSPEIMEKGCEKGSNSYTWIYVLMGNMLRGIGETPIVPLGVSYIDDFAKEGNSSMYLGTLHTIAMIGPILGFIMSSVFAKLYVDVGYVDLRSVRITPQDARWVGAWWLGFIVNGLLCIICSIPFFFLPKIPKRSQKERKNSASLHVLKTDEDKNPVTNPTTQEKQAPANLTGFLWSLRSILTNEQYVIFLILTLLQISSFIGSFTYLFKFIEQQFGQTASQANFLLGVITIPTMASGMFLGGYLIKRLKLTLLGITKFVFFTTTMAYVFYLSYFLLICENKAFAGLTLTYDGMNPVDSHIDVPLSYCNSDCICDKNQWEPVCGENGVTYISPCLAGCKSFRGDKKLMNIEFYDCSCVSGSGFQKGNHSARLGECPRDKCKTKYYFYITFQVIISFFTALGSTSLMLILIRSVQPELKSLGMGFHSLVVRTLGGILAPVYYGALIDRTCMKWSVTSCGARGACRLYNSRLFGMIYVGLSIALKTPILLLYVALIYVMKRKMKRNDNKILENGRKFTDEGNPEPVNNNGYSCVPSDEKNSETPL
Where a name gives a salt, the structure may show the parent alone.
Measured Fold of Change KO/WT, listed per entry.

compound	experimental-target	Fold of Change KO/WT
CCCCCCCC/C=C\CCCCCCCC(=O)OC[C@@H](O)COP(=O)(O)OC1[C@H](O)[C@H](O)C(O)[C@H](O)[C@H]1O (stereo partly shown)	Oatp1b2 (Mus musculus, UniProt Q9JJL3)	1.87
CCCCCC/C=C\CCCC(=O)OC(CC(=O)[O-])C[N+](C)(C)C (stereo not shown)	Oatp1b2 (Mus musculus, UniProt Q9JJL3)	1.46
C[C@H](CCC(=O)O)[C@H]1CC[C@H]2[C@@H]3C[C@@H](O)[C@@H]4C[C@H](O)CC[C@]4(C)[C@H]3CC[C@]12C [6-beta-hydroxylithocholate]	Oatp1b2 (Mus musculus, UniProt Q9JJL3)	13.1
CCCCCCCCCCCCCCCC/C=C\OC[C@@H](O)COP(=O)(O)OCCN	Oatp1b2 (Mus musculus, UniProt Q9JJL3)	1.72
CCCCCC(=O)NCC(=O)O	Oatp1b2 (Mus musculus, UniProt Q9JJL3)	1.59
C=Cc1ccc(OS(=O)(=O)O)cc1 [4-vinylphenol sulfate]	Oatp1b2 (Mus musculus, UniProt Q9JJL3)	1.55
CCCCC/C=C\C/C=C\C/C=C\C/C=C\CCCC(=O)OC[C@@H](O)COP(=O)([O-])OCC[N+](C)(C)C	Oatp1b2 (Mus musculus, UniProt Q9JJL3)	1.63
CCCCC/C=C\C/C=C\CCCCCCCC(=O)OC[C@@H](O)COP(=O)(O)OCCN	Oatp1b2 (Mus musculus, UniProt Q9JJL3)	1.94
CCc1ccc(OS(=O)(=O)[O-])cc1.[K+] [4-ethylphenylsulfate]	Oatp1b2 (Mus musculus, UniProt Q9JJL3)	17.2
C/C=C(\C)C(=O)NCC(=O)O	Oatp1b2 (Mus musculus, UniProt Q9JJL3)	1.38
O=C(O)CCCCCCCCC(O)CC(=O)O (stereo not shown) [3-hydroxydodecanedioate]	Oatp1b2 (Mus musculus, UniProt Q9JJL3)	4.32
O=C(O)CCCCCCCCCCCCC(=O)O [tetradecanedioate (C14-DC)]	Oatp1b2 (Mus musculus, UniProt Q9JJL3)	4.27
O=C(O)Cc1cn(C2O[C@H](CO)[C@@H](O)[C@H]2O)cn1 (stereo partly shown) [1-ribosyl-imidazoleacetate]	Oatp1b2 (Mus musculus, UniProt Q9JJL3)	1.64
Nc1ncnc2c1ncn2C1OC(COP(=O)(O)O)C(O)C1O (stereo not shown) [adenosine 5'-monophosphate (AMP)]	Oatp1b2 (Mus musculus, UniProt Q9JJL3)	1.12
CCCCCCCCCCCCCCCC(=O)OC[C@H](COP(=O)(O)OCCN)OC(=O)CCCCCCCCCCCCCCC	Oatp1b2 (Mus musculus, UniProt Q9JJL3)	2.02
O=C(O)CNC(=O)CCc1ccccc1	Oatp1b2 (Mus musculus, UniProt Q9JJL3)	2.41
CCCCC(=O)NCC(=O)O	Oatp1b2 (Mus musculus, UniProt Q9JJL3)	1.53
CCCCCCCC/C=C\CCCCCC/C=C\OC[C@@H](O)COP(=O)(O)OCCN	Oatp1b2 (Mus musculus, UniProt Q9JJL3)	2.16
CC(=O)N[C@@H](Cc1cncn1C)C(=O)O	Oatp1b2 (Mus musculus, UniProt Q9JJL3)	1.24
O=C1Cc2ccccc2N1	Oatp1b2 (Mus musculus, UniProt Q9JJL3)	1.51
CCCCCCCCCCCCCCC=COCC(O)COP(=O)([O-])OCC[N+](C)(C)C (stereo not shown)	Oatp1b2 (Mus musculus, UniProt Q9JJL3)	1.59
CCCCCCCC/C=C\CCCCCCCC(=O)OC[C@@H](O)COP(=O)(O)OCCN	Oatp1b2 (Mus musculus, UniProt Q9JJL3)	2.05
CCO[C@@H]1O[C@H](CO)[C@@H](O)[C@H](O)[C@H]1O [ethyl beta-glucopyranoside]	Oatp1b2 (Mus musculus, UniProt Q9JJL3)	1.41
O=S(=O)(O)Oc1ccc(O)cc1 [hydroquinone sulfate]	Oatp1b2 (Mus musculus, UniProt Q9JJL3)	1.55
CC/C=C\C/C=C\C/C=C\CCCCCCCC(=O)O[C@H](COC(=O)CCCCCCC/C=C\C/C=C\CCCCC)COP(=O)([O-])OCC[N+](C)(C)C	Oatp1b2 (Mus musculus, UniProt Q9JJL3)	1.51
CC(C)(O)CC(=O)O [beta-hydroxyisovalerate]	Oatp1b2 (Mus musculus, UniProt Q9JJL3)	1.40
CCCCCCCCCCCCCCCC(N)=O [palmitamide (16:0)]	Oatp1b2 (Mus musculus, UniProt Q9JJL3)	1.40
CCCCCCCC(=O)O[C@H](CC(=O)O)C[N+](C)(C)C	Oatp1b2 (Mus musculus, UniProt Q9JJL3)	1.62
CCCCCCCC/C=C\CCCCCCCC(=O)OC[C@@H](O)COP(=O)([O-])OCC[N+](C)(C)C	Oatp1b2 (Mus musculus, UniProt Q9JJL3)	1.78
CCCCC/C=C\C/C=C\C/C=C\C/C=C\CCCC(=O)O[C@H](COC(=O)CCCCCCC/C=C\CCCCCCCC)COP(=O)(O)OC1C(O)C(O)C(O)C(O)C1O (stereo partly shown)	Oatp1b2 (Mus musculus, UniProt Q9JJL3)	2.01
CCCCC/C=C\C/C=C\C/C=C\C/C=C\CCCC(=O)OC[C@@H](O)COP(=O)(O)OC1C(O)C(O)C(O)C(O)C1O (stereo partly shown)	Oatp1b2 (Mus musculus, UniProt Q9JJL3)	1.48

* * *

Measured Mean value WT, listed per entry.
molecular target: Oatp1b2 (Mus musculus, UniProt Q9JJL3); assay: Untargeted metabolomics of plasma from untreated wild-type and Oatp1b2(−/−) mice; conditions: plasma of untreated wild-type mice; raw area counts rescaled to median = 1
Structures can show the parent of a compound that is named as a salt.

molecule	Mean value WT
CCCCC/C=C\C/C=C\C/C=C\C/C=C\CCCC(=O)OC[C@@H](O)COP(=O)([O-])OCC[N+](C)(C)C [1-arachidonoyl-GPC (20:4n6)]	.775
CCCCCCCC/C=C\CCCCCCCC(=O)O[C@H](CC(=O)[O-])C[N+](C)(C)C [oleoylcarnitine (C18:1)]	.900
CCCCC/C=C\C/C=C\CCCCCCCC(=O)OC[C@@H](O)COP(=O)(O)O [1-linoleoyl-GPA (18:2)]	.595
CCCCCCCC/C=C\CCCCCCCC(=O)O[C@H](COC(=O)CCCCCCCCCCCCCCCCC)COP(=O)([O-])OCC[N+](C)(C)C [1-stearoyl-2-oleoyl-GPC (18:0/18:1)]	.892
Cc1ccc(OS(=O)(=O)O)cc1 [p-cresol sulfate]	.501
O=C(O)CCCCCCCCCCCCC(=O)O [tetradecanedioate (C14-DC)]	.459
C[C@H](CCC(=O)O)[C@H]1CC[C@H]2[C@@H]3C[C@H](O)[C@@H]4C[C@@H](O)CC[C@]4(C)[C@H]3CC[C@]12C [isohyodeoxycholate]	.382
CCCCCCCCCCCCCCCCC(=O)OC(CC(=O)[O-])C[N+](C)(C)C (stereo not drawn) [margaroylcarnitine (C17)]	.764
CCCCCC/C=C\CCCC(=O)OC(CC(=O)[O-])C[N+](C)(C)C (stereo not drawn) [5-dodecenoylcarnitine (C12:1)]	.936
CCCCCCCCCCCCCCCC(=O)OC[C@@H](O)COP(=O)([O-])OCC[N+](C)(C)C [1-palmitoyl-GPC (16:0)]	.868
CCCCCCCCCCCCCCCCCC(N)=O [stearamide (18:0)]	.800
O=C(O)CCCCCCCCCC(=O)O [undecanedioate (C11-DC)]	.654
CC(C)CCC[C@@H](C)[C@H]1CC[C@H]2[C@@H]3CCC4=CC(=O)CC[C@]4(C)[C@H]3CC[C@]12C [4-cholesten-3-one]	.870
OC[C@H]1O[C@@H](n2cnc3c(O)ncnc32)[C@H](O)[C@@H]1O [inosine]	.719
CCCCCCCCCCCCCC(=O)O[C@H](CC(=O)[O-])C[N+](C)(C)C [myristoylcarnitine (C14)]	.904

* * *

target: Oatp1b2 (Mus musculus); assay: Untargeted metabolomics of plasma from untreated wild-type and Oatp1b2(−/−) mice; details: plasma of untreated Oatp1b2-deficient (KO) vs wild-type (WT) mice; semi-quantitative; positive = higher in KO; n = 6 per group
measured-endpoint: Fold of Change KO/WT

> print(dat)
                                   compound  experimental.result
1  CCCCCCCCCCCCCCCC(=O)OC[C@@H](O)COP(=O)(O)OCCN                 1.73
2  CCCCC/C=C\C/C=C\C/C=C\C/C=C\CCCC(=O)O[C@H](CO/C=C\CCCCCCCCCCCCCC)COP(=O)(O)OCCN                 1.34
3  O=C(O)CCCCCCCCC(=O)O [sebacate (C10-DC)]                 1.44
4  CCCCCCCCCCCCCC/C=C\OC[C@H](COP(=O)([O-])OCC[N+](C)(C)C)OC(=O)CCCCCCCCCCCCCCC                 1.24
5  CCCCCCCCCCCCCC/C=C\OC[C@@H](O)COP(=O)(O)OCCN                 1.79
6  CCCCC/C=C\C/C=C\C/C=C\C/C=C\CCCC(=O)O[C@H](CC(=O)[O-])C[N+](C)(C)C                 1.92
7  CCCCC/C=C\C/C=C\CCCCCCCC(N)=O [linoleamide (18:2n6)]                 1.36
8  CCCCC/C=C\C/C=C\CCCCCCCC(=O)OC[C@@H](O)COP(=O)([O-])OCC[N+](C)(C)C                 1.62
